SYSTEM_NAME: Kv7.2 (Homo sapiens, UniProt O43526)
ASSAY_SUMMARY: Whole-cell patch-clamp on CHO cells transiently expressing Kv7.2
EXPERIMENTAL_SETUP: Kv7.2; shift in ramp-voltage (ΔV) at 20% of maximal current; 0.01-10 µM
Experimental: According to the experimental protocol, these plasmids were expressed individually or in combination (in particular of Kv7.2 and Kv7.3), together with a plasmid-expressing enhanced green fluorescent protein (Clontech, Palo Alto, CA) used as a transfection marker. […] Currents from CHO cells were recorded at room temperature (20-22°C) 24 hours after trasfection using the whole-cell configuration of the patch-clamp technique, with glass micropipettes of 3-5 MΩ resistance. […]
For each of the compounds below, state its pEC50.
Numbers only, as −log10 of the molar value.

Prompt: Please look up its pEC50: CCCCCCC(=O)Nc1ccc2c(ccn2Cc2ccc(C(F)(F)F)cc2)c1
Completion: 7.10

Next:
Prompt: Please look up its pEC50: CCOC(=O)Nc1ccc(NCc2ccc(F)cc2)cc1N [Retigabine, reference compound]
Completion: 6.03

---

ASSAY_SUMMARY: Photostability (HPLC, solar simulator irradiation)
Format: physicochemical
EXPERIMENTAL_SETUP: percentage of degradation after 6 h irradiation with solar simulator; 100 ppm in extracellular solution pH 7.4
ASSAY_READOUT: Photostability

Example entries begin here.
Prompt: Please look up its Photostability: COc1ccc(CN(C)c2ccc(NS(=O)(=O)C3CCCCC3)cc2)cc1
Completion: B (20%< degradation<40%)

Prompt: Please look up its Photostability: CCCCS(=O)(=O)Nc1ccc2c(c1)CCN2Cc1ccc(F)cc1
Completion: C (degradation > 40%)

Prompt: Please look up its Photostability: CC(C)[C@H]1CC[C@H](C)C[C@@H]1OC(=O)Nc1ccc2c(c1)CCN2Cc1ccc(F)cc1
Completion: B (20%< degradation<40%)

Prompt: Please look up its Photostability: O=S(=O)(Nc1cc(F)c2c(c1)CCN2Cc1ccc(C(F)(F)F)cc1)C1CCCCC1
Completion: B (20%< degradation<40%)

Prompt: Please look up its Photostability: Cc1cc2c(c(C)c1NS(=O)(=O)C1CCCCC1)CCN2Cc1ccc(C(F)(F)F)cc1
Completion: B (20%< degradation<40%)

Prompt: Please look up its Photostability: O=[N+]([O-])c1cc(Br)ccc1CN1CCc2cc(NS(=O)(=O)C3CCCCC3)ccc21
Completion: C (degradation > 40%)

Next:
Prompt: Please look up its Photostability: CCCCCCC(=O)Nc1ccc(NCc2ccc(C(F)(F)F)cc2)cc1N
Completion: B (20%< degradation<40%)

---

SYSTEM_NAME: Kv7.4 (Homo sapiens, UniProt P56696)
ASSAY_SUMMARY: Whole-cell patch-clamp on CHO cells transiently expressing Kv7.4
EXPERIMENTAL_SETUP: shift in ramp-voltage (ΔV) at 20% of maximal current, 0.01-10 µM
For each of the compounds below, state its EC50.
Give bare numbers, in µM.

Prompt: Please look up its EC50: CCOC(=O)Nc1ccc(NCc2ccc(F)cc2)cc1N [Retigabine, reference compound]
Completion: 1.98

Next:
Prompt: Please look up its EC50: CCCCCCC(=O)Nc1ccc2c(ccn2Cc2ccc(C(F)(F)F)cc2)c1
Completion: 0.1

---

ASSAY_SUMMARY: Solution stability (HPLC, extracellular solution, ambient temperature)
Assay type: physicochemical
EXPERIMENTAL_SETUP: percentage of degradation after 6 h at ambient temperature; 100 ppm in extracellular solution pH 7.4
ASSAY_READOUT: Solution stability

Prompt: Please look up its Solution stability: COc1ccc(CN2CCc3cc(NS(=O)(=O)C4CCCCC4)ccc32)cc1
Completion: C (degradation > 40%)

Prompt: Please look up its Solution stability: Nc1cc(NCc2ccc(C(F)(F)F)cc2)ccc1NS(=O)(=O)C1CCCCC1
Completion: C (degradation > 40%)
